// provenance: patent US10442815B2

Listed here: molecules with reported Ki for PI3K p110δ (Homo sapiens, UniProt O00329).

Previously resolved entries follow.
[
  {
    "Molecule": "[O-][S+]1CCN(Cc2cnc3oc4c(N5CCOCC5)nc(-c5cc(F)cc6[nH]ccc56)nc4c3c2)CC1 [Example D]",
    "Ki": "≤ 0.5 µM"
  },
  {
    "Molecule": "[O-][S+]1CCN(Cc2cnc3sc4c(N5CCOCC5)nc(-c5cccc6[nH]ccc56)nc4c3c2)CC1 [Example AK]",
    "Ki": "1 to 10 µM"
  }
]

Notebook: pull reported Ki for PI3K p110δ (Homo sapiens, UniProt O00329), entry Cc1ccc2[nH]ccc2c1-c1nc(N2CCOCC2)c2oc3ncc(CN4CC[S+]([O-])CC4)cc3c2n1 [Example P]
≤ 0.5 µM

Notebook: pull reported Ki for PI3K p110δ (Homo sapiens, UniProt O00329), entry [O-][S+]1CCN(Cc2cnc3oc4c(N5CCOCC5)nc(-c5c(Cl)ccc6c5CCN6)nc4c3c2)CC1 [Example U]
≤ 0.5 µM

Notebook: pull reported Ki for PI3K p110δ (Homo sapiens, UniProt O00329), entry O=S1(=O)CCN(Cc2cnc3oc4c(N5CCOCC5)nc(-c5cccc6[nH]ccc56)nc4c3c2)CC1 [Example A]
≤ 0.5 µM
